Data origin: patent US10562947B2

Biological target: Itk(h) (Homo sapiens)
Construct: purchased Millipore
Sequence (Q08881 1-620): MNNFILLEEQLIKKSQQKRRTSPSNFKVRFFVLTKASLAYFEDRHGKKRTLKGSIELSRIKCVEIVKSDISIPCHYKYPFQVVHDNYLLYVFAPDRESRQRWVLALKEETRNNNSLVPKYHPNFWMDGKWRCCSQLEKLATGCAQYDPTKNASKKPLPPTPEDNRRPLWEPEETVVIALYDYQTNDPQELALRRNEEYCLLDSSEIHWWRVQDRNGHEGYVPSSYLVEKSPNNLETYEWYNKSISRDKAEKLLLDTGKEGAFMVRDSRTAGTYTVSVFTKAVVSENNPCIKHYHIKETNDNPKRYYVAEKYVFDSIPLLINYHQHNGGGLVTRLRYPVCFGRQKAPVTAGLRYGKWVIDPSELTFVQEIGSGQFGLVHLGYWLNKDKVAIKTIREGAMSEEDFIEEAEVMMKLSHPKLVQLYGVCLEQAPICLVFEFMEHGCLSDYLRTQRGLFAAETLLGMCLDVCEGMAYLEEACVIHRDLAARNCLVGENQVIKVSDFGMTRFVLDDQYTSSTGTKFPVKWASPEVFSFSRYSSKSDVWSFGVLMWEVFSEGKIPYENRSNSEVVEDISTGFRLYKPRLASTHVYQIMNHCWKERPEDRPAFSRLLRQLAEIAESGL
Test: Kinase Profiling Assay
Format: biochemical
Settings: 100 μM peptide
measurement.name: Itk(h) % activity (%)
Quick note: give the figure in %, leave out the unit.

Input: Fill blank: measured Itk(h) % activity of the sequence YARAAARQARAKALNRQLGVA (Mammalian) [MMI-0200] is ____.
Output: 98

Input: // lookup Itk(h) % activity for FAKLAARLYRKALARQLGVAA [MMI-0300]
Output: 77

Input: Report Itk(h) % activity for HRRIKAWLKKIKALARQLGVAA (Mammalian) [MMI-0500] please.
Output: 7

Input: Which Itk(h) % activity value is on record for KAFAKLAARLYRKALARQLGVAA [MMI-0400] ?
Output: 63

----------
Biological target: PKBα(h) (Homo sapiens, UniProt P31749)
Sequence (P31749 whole entry): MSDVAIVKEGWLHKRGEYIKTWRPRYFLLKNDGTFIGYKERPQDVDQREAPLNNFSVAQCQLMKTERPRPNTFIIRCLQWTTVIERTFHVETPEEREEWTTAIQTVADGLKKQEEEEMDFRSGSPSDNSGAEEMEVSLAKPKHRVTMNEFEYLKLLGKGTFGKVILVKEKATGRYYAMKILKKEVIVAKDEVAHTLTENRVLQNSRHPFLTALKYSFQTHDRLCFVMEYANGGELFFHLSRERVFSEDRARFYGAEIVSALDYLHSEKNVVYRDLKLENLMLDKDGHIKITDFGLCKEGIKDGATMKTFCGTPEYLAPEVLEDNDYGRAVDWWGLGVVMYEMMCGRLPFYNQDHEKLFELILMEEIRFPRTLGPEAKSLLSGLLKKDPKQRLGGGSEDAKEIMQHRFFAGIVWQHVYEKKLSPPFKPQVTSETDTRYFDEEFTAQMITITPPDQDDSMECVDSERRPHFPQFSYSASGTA
Test: Kinase Profiling Assay
Format: biochemical
Conditions: 100 μM peptide
measurement.name: PKBα(h) % activity (%)
Give a bare numeral; the unit % is implied.

biopolymer.sequence	PKBα(h) % activity / %
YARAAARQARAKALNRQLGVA (Mammalian) [MMI-0200]	110
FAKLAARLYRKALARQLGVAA [MMI-0300]	57
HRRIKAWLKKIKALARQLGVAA (Mammalian) [MMI-0500]	30

Input: What value of PKBα(h) % activity has been recorded for this entry: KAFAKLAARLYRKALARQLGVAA [MMI-0400]
Output: 67

----------
# Fer(h) % activity listing for each entry below
Biological target: Fer(h) (Homo sapiens, UniProt P16591)
Sequence (P16591 whole entry): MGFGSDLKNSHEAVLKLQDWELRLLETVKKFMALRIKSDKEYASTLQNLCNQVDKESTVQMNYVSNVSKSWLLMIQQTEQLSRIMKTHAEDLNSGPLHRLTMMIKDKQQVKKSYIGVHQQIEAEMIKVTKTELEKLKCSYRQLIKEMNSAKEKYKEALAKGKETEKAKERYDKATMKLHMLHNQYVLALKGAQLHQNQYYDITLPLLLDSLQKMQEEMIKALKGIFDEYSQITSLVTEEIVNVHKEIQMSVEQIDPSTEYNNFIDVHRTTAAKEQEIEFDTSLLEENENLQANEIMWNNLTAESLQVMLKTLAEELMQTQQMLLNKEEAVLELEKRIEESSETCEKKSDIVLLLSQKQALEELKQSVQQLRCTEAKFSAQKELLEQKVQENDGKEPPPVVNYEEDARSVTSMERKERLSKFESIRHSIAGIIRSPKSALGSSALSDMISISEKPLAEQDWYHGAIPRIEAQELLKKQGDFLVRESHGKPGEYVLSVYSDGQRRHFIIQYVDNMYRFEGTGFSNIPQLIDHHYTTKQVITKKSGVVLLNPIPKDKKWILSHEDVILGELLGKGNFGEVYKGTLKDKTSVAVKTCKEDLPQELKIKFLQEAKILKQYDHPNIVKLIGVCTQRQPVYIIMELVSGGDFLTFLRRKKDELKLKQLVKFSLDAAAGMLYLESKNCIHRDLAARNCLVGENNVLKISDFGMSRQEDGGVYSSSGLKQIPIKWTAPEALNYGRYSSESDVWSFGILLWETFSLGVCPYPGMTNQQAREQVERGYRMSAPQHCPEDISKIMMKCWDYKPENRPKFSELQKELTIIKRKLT
Test: Kinase Profiling Assay
Type: biochemical
Conditions: 100 μM peptide
Give the value, in units of %, as a plain number.

Please review the entries below; each comes with its answer.
biopolymer.sequence	tested.system	unit.name	Fer(h) % activity
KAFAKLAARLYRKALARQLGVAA [MMI-0400]	Fer(h) (Homo sapiens, UniProt P16591)	%	108
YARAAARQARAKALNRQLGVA (Mammalian) [MMI-0200]	Fer(h) (Homo sapiens, UniProt P16591)	%	101
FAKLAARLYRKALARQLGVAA [MMI-0300]	Fer(h) (Homo sapiens, UniProt P16591)	%	130

// next entry
Input: Need Fer(h) % activity, item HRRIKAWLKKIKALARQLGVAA (Mammalian) [MMI-0500]
Output: 196

----------
Target: PDGFRβ(h) (Homo sapiens, UniProt P09619)
Sequence (P09619 33-1106): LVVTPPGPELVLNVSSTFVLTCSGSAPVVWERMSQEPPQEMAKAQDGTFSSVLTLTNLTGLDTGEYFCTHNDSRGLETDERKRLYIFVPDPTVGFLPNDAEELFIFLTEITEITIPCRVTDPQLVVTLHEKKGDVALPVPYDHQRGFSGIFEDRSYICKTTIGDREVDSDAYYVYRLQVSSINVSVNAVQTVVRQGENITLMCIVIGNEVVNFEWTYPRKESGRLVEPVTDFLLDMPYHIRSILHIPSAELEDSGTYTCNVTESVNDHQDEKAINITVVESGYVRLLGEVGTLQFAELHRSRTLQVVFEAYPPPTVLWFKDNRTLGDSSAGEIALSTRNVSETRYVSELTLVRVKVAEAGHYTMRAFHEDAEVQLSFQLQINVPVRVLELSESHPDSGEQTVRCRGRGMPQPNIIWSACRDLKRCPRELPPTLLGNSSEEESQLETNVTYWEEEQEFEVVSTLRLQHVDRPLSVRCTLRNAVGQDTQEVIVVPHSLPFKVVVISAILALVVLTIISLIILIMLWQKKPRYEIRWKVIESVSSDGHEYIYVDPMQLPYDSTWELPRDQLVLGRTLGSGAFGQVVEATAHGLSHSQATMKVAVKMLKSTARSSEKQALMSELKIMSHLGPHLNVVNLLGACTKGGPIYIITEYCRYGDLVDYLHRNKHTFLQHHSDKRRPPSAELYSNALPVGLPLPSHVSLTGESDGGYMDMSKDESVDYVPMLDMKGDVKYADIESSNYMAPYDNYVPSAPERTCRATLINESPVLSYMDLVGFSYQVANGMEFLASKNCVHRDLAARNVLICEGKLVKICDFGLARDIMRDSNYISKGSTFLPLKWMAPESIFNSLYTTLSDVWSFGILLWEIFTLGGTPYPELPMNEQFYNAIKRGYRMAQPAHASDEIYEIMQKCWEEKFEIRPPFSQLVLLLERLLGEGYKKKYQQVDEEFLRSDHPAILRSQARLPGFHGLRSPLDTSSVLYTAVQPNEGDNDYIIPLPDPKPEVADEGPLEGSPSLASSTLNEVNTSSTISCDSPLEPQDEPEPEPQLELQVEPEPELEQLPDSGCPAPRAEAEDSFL
Experiment: Kinase Profiling Assay
Assay type: biochemical
Conditions: 100 μM peptide
Some sequences, each annotated with its measured PDGFRβ(h) % activity.
Number in %, nothing else.

# example entries with known answers
biopolymer.sequence	tested.system	PDGFRβ(h) % activity [%]
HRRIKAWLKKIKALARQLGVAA (Mammalian) [MMI-0500]	PDGFRβ(h) (Homo sapiens, UniProt P09619)	40
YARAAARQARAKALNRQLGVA (Mammalian) [MMI-0200]	PDGFRβ(h) (Homo sapiens, UniProt P09619)	137
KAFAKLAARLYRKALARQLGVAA [MMI-0400]	PDGFRβ(h) (Homo sapiens, UniProt P09619)	53

Kindly consider the entry below.
Input: What measured PDGFRβ(h) % activity goes with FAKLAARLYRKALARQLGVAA [MMI-0300] ?
Output: 81

----------
Target: Aurora-B(h) (Homo sapiens)
Sequence (Q96GD4 whole entry): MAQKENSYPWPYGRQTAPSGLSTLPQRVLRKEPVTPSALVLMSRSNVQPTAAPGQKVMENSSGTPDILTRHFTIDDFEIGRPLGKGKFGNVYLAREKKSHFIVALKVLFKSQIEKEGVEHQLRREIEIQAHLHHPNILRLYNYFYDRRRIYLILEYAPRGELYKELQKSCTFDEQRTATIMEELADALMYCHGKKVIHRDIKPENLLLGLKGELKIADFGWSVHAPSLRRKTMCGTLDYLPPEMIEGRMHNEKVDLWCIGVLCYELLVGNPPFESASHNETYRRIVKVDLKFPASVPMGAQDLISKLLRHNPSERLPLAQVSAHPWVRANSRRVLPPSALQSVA
Test: Kinase Profiling Assay
Assay type: biochemical
Settings: 100 μM peptide
# key: entry, value: Aurora-B(h) % activity
Use % as the unit, but write only the number.

Here's what some known entries look like.
biopolymer.sequence	measurement.name	val
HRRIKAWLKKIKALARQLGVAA (Mammalian) [MMI-0500]	Aurora-B(h) % activity	5
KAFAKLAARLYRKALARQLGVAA [MMI-0400]	Aurora-B(h) % activity	150
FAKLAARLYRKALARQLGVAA [MMI-0300]	Aurora-B(h) % activity	128

// next item, Aurora-B(h) % activity requested
Input: For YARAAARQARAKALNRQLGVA (Mammalian) [MMI-0200] , what is its reported Aurora-B(h) % activity?
Output: 166

----------
Listing of recorded SGK3(h) % activity by entry.
Target: SGK3(h) (Homo sapiens)
Sequence (Q96BR1 1-496): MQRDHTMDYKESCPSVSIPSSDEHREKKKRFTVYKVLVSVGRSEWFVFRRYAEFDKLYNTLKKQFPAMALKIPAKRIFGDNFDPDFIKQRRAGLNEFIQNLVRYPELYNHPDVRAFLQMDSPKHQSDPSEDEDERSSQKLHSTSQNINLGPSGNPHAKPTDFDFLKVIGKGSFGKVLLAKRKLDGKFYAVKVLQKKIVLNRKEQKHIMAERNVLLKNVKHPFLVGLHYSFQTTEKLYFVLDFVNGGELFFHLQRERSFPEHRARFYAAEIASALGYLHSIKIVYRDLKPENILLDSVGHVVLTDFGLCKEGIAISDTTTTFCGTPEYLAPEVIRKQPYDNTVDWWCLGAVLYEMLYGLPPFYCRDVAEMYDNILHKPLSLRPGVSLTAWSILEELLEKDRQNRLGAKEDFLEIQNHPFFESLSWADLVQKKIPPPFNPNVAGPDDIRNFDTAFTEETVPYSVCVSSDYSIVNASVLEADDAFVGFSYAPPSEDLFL
Experiment: Kinase Profiling Assay
Type: biochemical
Conditions: 100 μM peptide
Value expressed in %; do not type the unit.

Consider the reported SGK3(h) % activity for these sequences:
biopolymer.sequence	val
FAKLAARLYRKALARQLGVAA [MMI-0300]	10
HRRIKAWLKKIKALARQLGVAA (Mammalian) [MMI-0500]	−3
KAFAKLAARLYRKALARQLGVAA [MMI-0400]	8

# ---- query sequence ----
Input: For the sequence shown here, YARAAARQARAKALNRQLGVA (Mammalian) [MMI-0200] , give the reported SGK3(h) % activity.
Output: 58

----------
Target: EGFR(L861Q)(h) (Homo sapiens, UniProt P00533, L861Q)
Assay: Kinase Profiling Assay
Type: biochemical
Conditions: 100 μM peptide
measurement.name: EGFR(L861Q)(h) % activity (%)
Form entry: value (%) — number only.

Some sequences with known EGFR(L861Q)(h) % activity results, for comparison:
biopolymer.sequence	unit.name	val
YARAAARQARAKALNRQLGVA (Mammalian) [MMI-0200]	%	74
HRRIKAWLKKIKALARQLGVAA (Mammalian) [MMI-0500]	%	15
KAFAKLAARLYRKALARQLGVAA [MMI-0400]	%	22

Next, consider the following sequence.
Input: Query: EGFR(L861Q)(h) % activity; subject: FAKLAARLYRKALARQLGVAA [MMI-0300]
Output: 25

----------
Molecular target: DCAMKL2(h) (Homo sapiens, UniProt Q8N568)
Sequence (Q8N568 1-766): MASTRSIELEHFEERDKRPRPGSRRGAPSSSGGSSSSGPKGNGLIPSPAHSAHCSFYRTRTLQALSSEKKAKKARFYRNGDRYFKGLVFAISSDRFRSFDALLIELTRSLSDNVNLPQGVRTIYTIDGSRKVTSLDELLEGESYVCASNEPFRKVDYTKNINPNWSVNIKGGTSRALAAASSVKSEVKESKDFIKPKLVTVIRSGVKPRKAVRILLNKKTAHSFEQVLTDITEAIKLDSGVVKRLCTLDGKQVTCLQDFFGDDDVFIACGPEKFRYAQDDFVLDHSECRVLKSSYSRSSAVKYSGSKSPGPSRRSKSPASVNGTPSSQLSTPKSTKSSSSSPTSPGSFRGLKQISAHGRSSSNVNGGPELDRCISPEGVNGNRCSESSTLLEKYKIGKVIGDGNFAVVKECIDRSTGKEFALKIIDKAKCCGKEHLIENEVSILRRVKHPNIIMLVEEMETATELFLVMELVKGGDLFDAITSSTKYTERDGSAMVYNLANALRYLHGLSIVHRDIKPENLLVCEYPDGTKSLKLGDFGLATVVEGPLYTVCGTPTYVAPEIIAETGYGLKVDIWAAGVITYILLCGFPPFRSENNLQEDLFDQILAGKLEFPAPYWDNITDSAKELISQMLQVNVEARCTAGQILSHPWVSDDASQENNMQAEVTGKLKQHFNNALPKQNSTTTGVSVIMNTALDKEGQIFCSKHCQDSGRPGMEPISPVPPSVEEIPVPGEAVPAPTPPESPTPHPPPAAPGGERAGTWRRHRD
Test: Kinase Profiling Assay
Format: biochemical
Details: 100 μM peptide
Quick reference for DCAMKL2(h) % activity among some sequences
// return numeric value only (unit: %, not printed)

Input: Field request: DCAMKL2(h) % activity | item: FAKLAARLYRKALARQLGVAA [MMI-0300]
Output: 81

Input: Can you look up the measured DCAMKL2(h) % activity of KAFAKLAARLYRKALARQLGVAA [MMI-0400] for me?
Output: 70

Input: Param item = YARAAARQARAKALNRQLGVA (Mammalian) [MMI-0200] ; retrieve measured DCAMKL2(h) % activity.
Output: 131

Input: Any idea what its DCAMKL2(h) % activity is? The sequence is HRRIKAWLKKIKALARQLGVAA (Mammalian) [MMI-0500]
Output: 56
